Molecular target: T1, biotin-conjugated IL-9-Fc (Biotin-IL-9-Fc) (UniProt P15248 19-144, biotin-conjugated (sites not given))
T1 construct: range 19-144; also called Fc-IL-9 recombinant protein; Fc-IL-9; not shown: Fc tag (Fc2 in the vector name pLVX-Fc2-IL9 (19-144)-Puro)
T1 sequence (P15248 19-144 limits assumed, form in doubt): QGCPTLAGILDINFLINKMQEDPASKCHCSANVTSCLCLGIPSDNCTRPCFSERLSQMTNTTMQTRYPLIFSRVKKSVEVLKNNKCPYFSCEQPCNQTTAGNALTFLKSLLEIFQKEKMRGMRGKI
Experiment: flow cytometry blocking assay (IL9-IL9R blocking determination): serially diluted antibody against the binding of Biotin-IL-9-Fc to 293-IL-9R cells (IL-9R), MFI; unit taken from the x axis, the table prints none
quantityName: EC50
Your reply should be a number followed by the unit it is expressed in.

In the examples that follow, each entry is paired with its recorded EC50.
Input line: Give its EC50 value. Item: humanized antibody VH1-VL4 (hu.CA2) (antibody, V domains shown, IgG1 / kappa by the vectors pcDNA3.4-IgG1 and pcDNA3.4-IgKc; also called humanized VH1-VL4 antibody) VH: EVQLKQSGAEVMKPGASVKVSCKATGYTFTGYWIEWVRLAPGHGLEWMGEILPGSGSTNYNQKFQGRVTFTADTSINTAYMELSRLRSDDTAIYYCARRTYYYGIPEDYWGQGTLVTVSS VL: DIVMTQSPKFLSASVGDRVTITCKASQNVGTNVAWHQQKPGQSPKPLIYSASYRYSGVPSRFTGSGSGTDFTLTISNLQPEDFAEYFCQQYNSYPLTFGAGTKLEIK
Output line: 8.18 µg/mL

Input line: Give its EC50 value. Item: humanized antibody VH1-VL2 (hu.CA1) (antibody, V domains shown, IgG1 / kappa by the vectors pcDNA3.4-IgG1 and pcDNA3.4-IgKc; also called humanized VH1-VL2 antibody) VH: EVQLKQSGAEVMKPGASVKVSCKATGYTFTGYWIEWVRLAPGHGLEWMGEILPGSGSTNYNQKFQGRVTFTADTSINTAYMELSRLRSDDTAIYYCARRTYYYGIPEDYWGQGTLVTVSS VL: DIVMTQSQKFFSTSTGDRVTITCRASQNVGTNVAWHQQKPGQSPKPLIYSASYRYSGVPSRFTGSGSGTDFTLTISNLQSEDFAEYFCQQYNSYPLTFGAGTKLEIK
Output line: 5.89 µg/mL

New cases:
Input line: Give its EC50 value. Item: humanized antibody VH2-VL4 (hu.CA3) (antibody, V domains shown, IgG1 / kappa by the vectors pcDNA3.4-IgG1 and pcDNA3.4-IgKc) VH: EVQLVQSGAEVMKPGASVKVSCKATGYTFTGYWIEWVRLAPGQGLEWMGEILPGSGSTNYNQKFQGRVTFTADTSTNTAYMELSSLRSEDTAIYYCARRTYYYGIPEDYWGQGTLVTVSS VL: DIVMTQSPKFLSASVGDRVTITCKASQNVGTNVAWHQQKPGQSPKPLIYSASYRYSGVPSRFTGSGSGTDFTLTISNLQPEDFAEYFCQQYNSYPLTFGAGTKLEIK
Output line: 11.7 µg/mL

Input line: Give its EC50 value. Item: humanized antibody VH3-VL4 (hu.CA4) (antibody, V domains shown, IgG1 / kappa by the vectors pcDNA3.4-IgG1 and pcDNA3.4-IgKc) VH: EVQLVQSGAEVMKPGASVKVSCKATGYTFTGYWIEWVRLAPGQGLEWMGEILPGSGSTNYNQKLQGRVTFTADTSTNTAYMELRSLRSDDTAIYYCARRTYYYGIPEDYWGQGTLVTVSS VL: DIVMTQSPKFLSASVGDRVTITCKASQNVGTNVAWHQQKPGQSPKPLIYSASYRYSGVPSRFTGSGSGTDFTLTISNLQPEDFAEYFCQQYNSYPLTFGAGTKLEIK
Output line: 11.3 µg/mL

Input line: Give its EC50 value. Item: 38-D8-C7-G9 chimeric antibody (CA1) (antibody, V domains shown, also called CA1 antibody; human-mouse chimeric antibody CA1) VH: EVQLKQSGAELMKPGASVKLSCKATGYTFTGYWIEWVKLRPGHGLEWIGEILPGSGSTNYNEEFKGKATFTADTSSNTAYMQLNSLTTEDSAIYYCARRTYYYGIPEDYWGQGTSVTVSS VL: DIVMTQSQKFMSTSVGDRVSVTCKASQNVGTNVAWHQQKPGQSPKPLIYSASYRYSGVPDRFTGSGSGTDFTLTISNVQSEDLAEYFCQQYNSYPLTFGAGTKLELK
Output line: 2.07 µg/mL
